Biological target: V1a (Homo sapiens)
Sequence (P37288 whole entry): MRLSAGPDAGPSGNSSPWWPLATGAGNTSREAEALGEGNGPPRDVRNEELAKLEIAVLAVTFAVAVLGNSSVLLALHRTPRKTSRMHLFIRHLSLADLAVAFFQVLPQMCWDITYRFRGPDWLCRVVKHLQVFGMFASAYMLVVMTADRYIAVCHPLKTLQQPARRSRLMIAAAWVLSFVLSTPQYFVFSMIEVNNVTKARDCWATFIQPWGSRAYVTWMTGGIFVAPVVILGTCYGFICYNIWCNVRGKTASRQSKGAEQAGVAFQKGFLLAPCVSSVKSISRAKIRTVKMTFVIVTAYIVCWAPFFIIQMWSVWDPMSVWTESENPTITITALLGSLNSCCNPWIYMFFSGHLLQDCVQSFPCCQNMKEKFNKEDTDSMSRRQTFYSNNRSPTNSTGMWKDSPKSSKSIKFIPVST
pIC50: −log10 of the molar value.
Assay Readout: pIC50

Incoming: Identify the measured pIC50 of O=C(O)[C@H]1C2CCC(CC2)[C@@H]1Nc1nc(-c2n[nH]c3ncc(F)cc23)nc(C2CC2)c1F for V1a (Homo sapiens).
Outgoing: < 5.00

---

Molecular target: LCK (Homo sapiens)
Sequence (P06239 whole entry): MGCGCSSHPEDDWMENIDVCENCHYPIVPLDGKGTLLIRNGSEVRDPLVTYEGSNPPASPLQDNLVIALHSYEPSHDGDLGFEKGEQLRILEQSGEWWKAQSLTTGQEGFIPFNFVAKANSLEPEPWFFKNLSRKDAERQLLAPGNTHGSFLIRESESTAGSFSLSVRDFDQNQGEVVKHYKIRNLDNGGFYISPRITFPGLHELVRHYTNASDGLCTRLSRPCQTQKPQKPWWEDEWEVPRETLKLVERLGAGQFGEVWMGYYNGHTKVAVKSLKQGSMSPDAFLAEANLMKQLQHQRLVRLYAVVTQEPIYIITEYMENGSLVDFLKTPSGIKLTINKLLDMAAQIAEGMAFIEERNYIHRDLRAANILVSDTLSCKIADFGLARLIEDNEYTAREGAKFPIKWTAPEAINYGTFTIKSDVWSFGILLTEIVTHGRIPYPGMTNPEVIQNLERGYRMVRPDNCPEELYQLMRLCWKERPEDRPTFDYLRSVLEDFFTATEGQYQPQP
Assay: biochemical
Assay Readout: IC50

Incoming: Please report the recorded IC50 for O=C(O)[C@H]1C2CCC(CC2)[C@@H]1Nc1nc(-c2n[nH]c3ncc(F)cc23)nc(C2CC2)c1F .
Outgoing: > 10 µM

Incoming: Please report the recorded IC50 for O=C(O)[C@H]1C2CCC(CC2)[C@@H]1Nc1nc(-c2c[nH]c3ncc(F)cc23)ncc1F [VX-787, reference compound] .
Outgoing: > 10 µM

---

Target: op-delta (Homo sapiens, UniProt P41143)
Sequence (P41143 whole entry): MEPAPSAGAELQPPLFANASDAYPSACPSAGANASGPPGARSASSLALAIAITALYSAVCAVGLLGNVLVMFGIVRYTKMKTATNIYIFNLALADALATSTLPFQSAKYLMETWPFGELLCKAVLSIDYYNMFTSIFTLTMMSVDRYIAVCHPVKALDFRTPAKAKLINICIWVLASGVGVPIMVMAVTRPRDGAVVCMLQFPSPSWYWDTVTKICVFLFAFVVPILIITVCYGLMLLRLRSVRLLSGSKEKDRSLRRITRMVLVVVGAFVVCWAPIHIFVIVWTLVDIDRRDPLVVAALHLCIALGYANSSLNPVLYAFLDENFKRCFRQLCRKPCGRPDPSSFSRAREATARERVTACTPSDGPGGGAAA
Experiment: cell-based
Assay Readout: IC50

Incoming: Please report the recorded IC50 for O=C(O)[C@H]1C2CCC(CC2)[C@@H]1Nc1nc(-c2n[nH]c3ncc(F)cc23)nc(C2CC2)c1F .
Outgoing: > 10 µM

---

Test: in vivo
Conditions: both, SD, rat, po, 3 mg/kg
Assay Readout: bioavailability (%)
Give a bare numeral; the unit % is implied.

Incoming: Please report the recorded bioavailability for O=C(O)[C@H]1C2CCC(CC2)[C@@H]1Nc1nc(-c2n[nH]c3ncc(F)cc23)nc(C2CC2)c1F .
Outgoing: 22.8

---

Target: M2 (Homo sapiens, UniProt P08172)
Sequence (P08172 whole entry): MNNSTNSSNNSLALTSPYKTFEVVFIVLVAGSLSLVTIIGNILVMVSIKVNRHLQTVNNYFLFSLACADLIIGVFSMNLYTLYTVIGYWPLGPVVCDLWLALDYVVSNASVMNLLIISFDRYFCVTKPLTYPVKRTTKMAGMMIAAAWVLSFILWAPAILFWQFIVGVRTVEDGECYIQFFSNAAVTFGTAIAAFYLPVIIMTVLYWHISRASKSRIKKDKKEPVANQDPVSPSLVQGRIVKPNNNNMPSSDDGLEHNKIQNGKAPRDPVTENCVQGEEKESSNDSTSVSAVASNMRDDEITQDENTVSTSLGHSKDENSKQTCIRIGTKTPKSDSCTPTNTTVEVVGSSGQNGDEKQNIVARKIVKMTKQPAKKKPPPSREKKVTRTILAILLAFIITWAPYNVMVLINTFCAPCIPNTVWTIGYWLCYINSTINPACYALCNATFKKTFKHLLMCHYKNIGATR
Assay Readout: IC50

Incoming: Identify the measured IC50 of O=C(O)[C@H]1C2CCC(CC2)[C@@H]1Nc1nc(-c2n[nH]c3ncc(F)cc23)nc(C2CC2)c1F for M2 (Homo sapiens, UniProt P08172).
Outgoing: > 10 µM

---

Target: UniProt P12931
Sequence (P12931 whole entry): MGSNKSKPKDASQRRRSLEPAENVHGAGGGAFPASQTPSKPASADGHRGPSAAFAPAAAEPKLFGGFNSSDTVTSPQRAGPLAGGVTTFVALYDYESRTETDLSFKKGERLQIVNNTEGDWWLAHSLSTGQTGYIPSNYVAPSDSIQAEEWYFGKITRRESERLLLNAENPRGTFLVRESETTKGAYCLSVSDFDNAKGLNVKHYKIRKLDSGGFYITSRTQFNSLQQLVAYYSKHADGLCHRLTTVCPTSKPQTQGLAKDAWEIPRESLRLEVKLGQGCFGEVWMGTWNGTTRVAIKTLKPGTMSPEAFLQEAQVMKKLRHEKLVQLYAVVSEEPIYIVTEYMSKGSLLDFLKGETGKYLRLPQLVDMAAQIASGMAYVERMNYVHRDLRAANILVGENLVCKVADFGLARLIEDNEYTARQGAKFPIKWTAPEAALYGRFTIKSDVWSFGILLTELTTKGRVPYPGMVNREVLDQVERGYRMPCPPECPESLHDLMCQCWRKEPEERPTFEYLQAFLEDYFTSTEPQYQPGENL
pIC50: −log10 of the molar value.
pIC50 overview

> print(dat)
                                   molecule  test.result
1  O=C(O)[C@H]1C2CCC(CC2)[C@@H]1Nc1nc(-c2n[nH]c3ncc(F)cc23)nc(C2CC2)c1F       < 5.00

Please examine the following record next.
Incoming: Please report the recorded pIC50 for O=C(O)[C@H]1C2CCC(CC2)[C@@H]1Nc1nc(-c2c[nH]c3ncc(F)cc23)ncc1F [VX-787, reference compound] .
Outgoing: < 5.00

---

Biological target: EPHA2 (Homo sapiens, UniProt P29317)
Sequence (P29317 24-976): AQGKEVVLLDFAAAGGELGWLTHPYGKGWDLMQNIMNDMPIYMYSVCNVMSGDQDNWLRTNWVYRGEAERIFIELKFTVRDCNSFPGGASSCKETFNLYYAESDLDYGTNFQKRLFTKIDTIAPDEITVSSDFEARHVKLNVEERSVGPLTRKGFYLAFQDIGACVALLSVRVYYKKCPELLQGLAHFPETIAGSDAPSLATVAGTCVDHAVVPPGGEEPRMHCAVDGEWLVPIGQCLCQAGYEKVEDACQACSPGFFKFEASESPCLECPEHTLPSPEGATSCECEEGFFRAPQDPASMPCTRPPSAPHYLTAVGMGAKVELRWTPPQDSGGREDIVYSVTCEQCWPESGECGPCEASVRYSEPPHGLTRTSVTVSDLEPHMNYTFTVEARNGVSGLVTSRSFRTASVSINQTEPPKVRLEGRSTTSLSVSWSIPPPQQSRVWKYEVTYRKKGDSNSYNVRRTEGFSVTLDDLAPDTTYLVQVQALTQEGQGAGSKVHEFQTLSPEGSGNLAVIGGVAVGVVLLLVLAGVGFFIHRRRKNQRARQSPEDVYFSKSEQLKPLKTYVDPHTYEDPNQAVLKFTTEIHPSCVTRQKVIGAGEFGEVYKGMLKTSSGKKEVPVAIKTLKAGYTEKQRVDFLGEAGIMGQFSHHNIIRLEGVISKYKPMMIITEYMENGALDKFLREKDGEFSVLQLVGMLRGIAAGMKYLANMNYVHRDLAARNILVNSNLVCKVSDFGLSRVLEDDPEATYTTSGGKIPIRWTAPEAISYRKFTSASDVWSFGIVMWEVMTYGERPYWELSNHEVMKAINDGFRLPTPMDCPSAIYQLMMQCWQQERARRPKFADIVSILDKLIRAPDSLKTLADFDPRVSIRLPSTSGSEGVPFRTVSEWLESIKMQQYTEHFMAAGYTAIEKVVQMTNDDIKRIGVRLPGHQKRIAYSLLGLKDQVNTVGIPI
IC50 overview

> print(dat)
                                   compound                                system  assay.readout  test.result
1  O=C(O)[C@H]1C2CCC(CC2)[C@@H]1Nc1nc(-c2n[nH]c3ncc(F)cc23)nc(C2CC2)c1F  EPHA2 (Homo sapiens, UniProt P29317)           IC50      > 10 µM

Please examine the following record next.
Incoming: Identify the measured IC50 of O=C(O)[C@H]1C2CCC(CC2)[C@@H]1Nc1nc(-c2c[nH]c3ncc(F)cc23)ncc1F [VX-787, reference compound] for EPHA2 (Homo sapiens, UniProt P29317).
Outgoing: > 10 µM

---

Molecular target: 5HT2A (Homo sapiens, UniProt P28223)
Sequence (P28223 whole entry): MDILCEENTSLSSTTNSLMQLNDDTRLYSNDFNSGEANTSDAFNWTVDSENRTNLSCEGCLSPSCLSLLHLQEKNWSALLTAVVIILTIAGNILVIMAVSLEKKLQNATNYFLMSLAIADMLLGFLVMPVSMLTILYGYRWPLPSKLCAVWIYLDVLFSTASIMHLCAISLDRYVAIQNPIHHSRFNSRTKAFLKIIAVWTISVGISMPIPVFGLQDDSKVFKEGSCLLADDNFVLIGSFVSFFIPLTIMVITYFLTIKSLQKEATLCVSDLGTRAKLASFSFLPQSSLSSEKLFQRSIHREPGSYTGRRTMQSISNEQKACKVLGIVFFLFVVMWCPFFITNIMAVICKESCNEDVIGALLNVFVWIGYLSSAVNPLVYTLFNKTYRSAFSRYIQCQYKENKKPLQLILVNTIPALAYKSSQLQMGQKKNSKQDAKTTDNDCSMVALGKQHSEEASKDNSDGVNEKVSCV
Assay: cell-based
Conditions: agonist mode; read-out: EC50
Assay Readout: pEC50
Just the number, please; pEC50 means minus log10 of the concentration in mol/L.

Incoming: Please report the recorded pEC50 for NCCc1c[nH]c2ccc(C(N)=O)cc12 [5-CT, reference compound] .
Outgoing: 8.03

---

pEC50 overview
Tested on: Influenza virus A/Mal/302/54 (H1N1)
Assay: microbe, parasite or virus in culture
Type: cell-based
Conditions: H1N1, MDCK, read-out: EC50 (mean ± SD)
Just the number, please; pEC50 means minus log10 of the concentration in mol/L.

Incoming: Please report the recorded pEC50 for O=C(O)[C@H]1C2CCC(CC2)[C@@H]1Nc1nc(-c2n[nH]c3ncc(F)cc23)nc(C2CC2)c1F .
Outgoing: 10.55

Incoming: Please report the recorded pEC50 for O=C(O)[C@H]1C2CCC(CC2)[C@@H]1Nc1nc(-c2c[nH]c3ncc(F)cc23)ncc1F [VX-787, reference compound] .
Outgoing: 9.53

Incoming: Please report the recorded pEC50 for CCOC(=O)C1=C[C@@H](OC(CC)CC)[C@H](NC(C)=O)[C@@H](N)C1 .
Outgoing: 5.87

---

Target: op-mu (Homo sapiens)
Sequence (P35372 whole entry): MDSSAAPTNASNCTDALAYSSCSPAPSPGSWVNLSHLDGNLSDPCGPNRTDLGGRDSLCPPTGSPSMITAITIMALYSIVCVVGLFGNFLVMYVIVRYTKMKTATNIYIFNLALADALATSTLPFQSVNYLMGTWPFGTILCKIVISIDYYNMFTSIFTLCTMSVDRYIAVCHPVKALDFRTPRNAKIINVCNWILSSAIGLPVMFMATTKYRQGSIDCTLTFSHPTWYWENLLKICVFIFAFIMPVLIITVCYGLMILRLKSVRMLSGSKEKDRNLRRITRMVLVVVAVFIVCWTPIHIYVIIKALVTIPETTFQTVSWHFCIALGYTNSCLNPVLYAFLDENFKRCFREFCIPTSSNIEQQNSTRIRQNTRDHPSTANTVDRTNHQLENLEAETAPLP
Assay: cell-based
Assay Readout: EC50

Incoming: Please report the recorded EC50 for O=C(O)[C@H]1C2CCC(CC2)[C@@H]1Nc1nc(-c2n[nH]c3ncc(F)cc23)nc(C2CC2)c1F .
Outgoing: > 12 µM

---

Assay: in vivo
Details: both, SD, rat, po, 75 mg/kg, Cmax
Assay Readout: Cmax (ng/mL)
Give a bare numeral; the unit ng/mL is implied.

Incoming: Please report the recorded Cmax for O=C(O)[C@H]1C2CCC(CC2)[C@@H]1Nc1nc(-c2n[nH]c3ncc(F)cc23)nc(C2CC2)c1F .
Outgoing: 17200

---

Molecular target: MAP4K4 (Homo sapiens, UniProt O95819)
Assay Readout: IC50 (nM)
Give a bare numeral; the unit nM is implied.

Incoming: Identify the measured IC50 of O=C(O)[C@H]1C2CCC(CC2)[C@@H]1Nc1nc(-c2c[nH]c3ncc(F)cc23)ncc1F [VX-787, reference compound] for MAP4K4 (Homo sapiens, UniProt O95819).
Outgoing: 1780

---

Experiment: in vivo
Details: both, beagle, dog, po, 1 mg/kg
Assay Readout: bioavailability (%)
Give a bare numeral; the unit % is implied.

Incoming: Please report the recorded bioavailability for O=C(O)[C@H]1C2CCC(CC2)[C@@H]1Nc1nc(-c2n[nH]c3ncc(F)cc23)nc(C2CC2)c1F .
Outgoing: 26.7

---

Test: in vivo
Conditions: both, beagle, dog, po, 15 mg/kg
Assay Readout: Cmax (ng/mL)
Give a bare numeral; the unit ng/mL is implied.

Incoming: Please report the recorded Cmax for O=C(O)[C@H]1C2CCC(CC2)[C@@H]1Nc1nc(-c2n[nH]c3ncc(F)cc23)nc(C2CC2)c1F .
Outgoing: 5800

---

Assay: in vivo
Conditions: female, BALB/c, mouse, po, 10 mg/kg
Assay Readout: Cmax (ng/mL)
Give a bare numeral; the unit ng/mL is implied.

Incoming: Please report the recorded Cmax for O=C(O)[C@H]1C2CCC(CC2)[C@@H]1Nc1nc(-c2n[nH]c3ncc(F)cc23)nc(C2CC2)c1F .
Outgoing: 3010

---

System: MDCK cells
Experiment: Cytotoxicity in MDCK cells without viral infection
Conditions: MDCK, 37 °C
Assay Readout: CC50

Incoming: Identify the measured CC50 of CCOC(=O)C1=C[C@@H](OC(CC)CC)[C@H](NC(C)=O)[C@@H](N)C1 for MDCK cells.
Outgoing: > 100 µM

---

Test: in vivo
Settings: female, BALB/c, mouse, po, 30 mg/kg
Assay Readout: AUC(0-t) (ng·h/mL)
Give a bare numeral; the unit ng·h/mL is implied.

Incoming: Please report the recorded AUC(0-t) for O=C(O)[C@H]1C2CCC(CC2)[C@@H]1Nc1nc(-c2n[nH]c3ncc(F)cc23)nc(C2CC2)c1F .
Outgoing: 56000

---

Assay: in vitro
Conditions: African green monkey
Assay Readout: CC50

Incoming: Please report the recorded CC50 for O=C(O)[C@H]1C2CCC(CC2)[C@@H]1Nc1nc(-c2n[nH]c3ncc(F)cc23)nc(C2CC2)c1F [ZSP1273] .
Outgoing: > 10 µM

---

Molecular target: CCKa (Homo sapiens)
Assay: cell-based
pIC50: −log10 of the molar value.
Assay Readout: pIC50

Incoming: Please report the recorded pIC50 for O=C(O)[C@H]1C2CCC(CC2)[C@@H]1Nc1nc(-c2n[nH]c3ncc(F)cc23)nc(C2CC2)c1F .
Outgoing: < 5.00

---

Parameter IC50, tested on CHK1 (Homo sapiens), listed per item.
Sequence (O14757 whole entry): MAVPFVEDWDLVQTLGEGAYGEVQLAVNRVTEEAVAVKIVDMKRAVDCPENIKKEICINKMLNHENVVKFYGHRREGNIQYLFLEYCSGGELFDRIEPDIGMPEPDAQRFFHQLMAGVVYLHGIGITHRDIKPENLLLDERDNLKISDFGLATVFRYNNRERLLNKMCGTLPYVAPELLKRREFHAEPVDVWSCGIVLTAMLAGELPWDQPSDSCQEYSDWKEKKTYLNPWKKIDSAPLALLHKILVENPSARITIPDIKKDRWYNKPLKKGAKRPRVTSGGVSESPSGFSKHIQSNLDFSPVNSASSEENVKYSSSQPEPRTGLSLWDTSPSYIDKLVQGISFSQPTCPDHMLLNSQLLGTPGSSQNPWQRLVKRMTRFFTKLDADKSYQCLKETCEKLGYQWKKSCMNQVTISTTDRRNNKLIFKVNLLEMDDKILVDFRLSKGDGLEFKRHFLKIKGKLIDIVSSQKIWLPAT

Incoming: Identify the measured IC50 of O=C(O)[C@H]1C2CCC(CC2)[C@@H]1Nc1nc(-c2n[nH]c3ncc(F)cc23)nc(C2CC2)c1F for CHK1 (Homo sapiens).
Outgoing: > 10 µM

Incoming: Identify the measured IC50 of O=C(O)[C@H]1C2CCC(CC2)[C@@H]1Nc1nc(-c2c[nH]c3ncc(F)cc23)ncc1F [VX-787, reference compound] for CHK1 (Homo sapiens).
Outgoing: > 10 µM

---

pIC50: −log10 of the molar value.
Parameter pIC50, tested on PKA (Homo sapiens, UniProt P17612), listed per item.

> print(dat)
                                   molecule  assay.readout  test.result
1  O=C(O)[C@H]1C2CCC(CC2)[C@@H]1Nc1nc(-c2n[nH]c3ncc(F)cc23)nc(C2CC2)c1F          pIC50       < 5.00

Incoming: Identify the measured pIC50 of O=C(O)[C@H]1C2CCC(CC2)[C@@H]1Nc1nc(-c2c[nH]c3ncc(F)cc23)ncc1F [VX-787, reference compound] for PKA (Homo sapiens, UniProt P17612).
Outgoing: < 5.00
